test system: Homo sapiens; assay: Oral bioavailability in human; conditions: in vivo
Field: F_fraction. Provide a value for each of the molecules that follow.
Give bare numbers.

Some solved cases for reference:
COC(=O)C1=C(C)NC(C)=C(C(=O)OC)C1c1ccccc1[N+](=O)[O-]    0.5
CNCCC=C1c2ccccc2CCc2ccccc21    0.51
COc1cc(Cc2cnc(N)nc2N)cc(OC)c1OC    0.76
Nc1nc(O)c2ncn(COC(CO)CO)c2n1    0.09
COc1ccc(C(CN(C)C)C2(O)CCCCC2)cc1 (stereo unspecified)    0.42

[ask] Would you kindly share the measured F_fraction for CCOc1ccccc1OCCN[C@H](C)Cc1ccc(OC)c(S(N)(=O)=O)c1 ?
[reply] 1

From: ChEMBL document CHEMBL1156824
